The entries below come with measured pKi values attached.
# target_of_assay: human arginase I (Homo sapiens)
# assay_comment: Arginase inhibition, QuantiChrom colorimetric urea assay, IC50 converted to Ki
# Assay type: biochemical
# applied_conditions: Table 3; pH 7.5; read-out: human Arginase I pH 7.5, Ki assigned value
# Description: For some compounds, their inhibitory potency at pH 7.5 was compared to the inhibitory potency of ABH at pH 7.5. Quantitative determination of arginase activity was performed in a 96-well format by a colorimetric method using the QuantiChrom™ Arginase Assay Kit available from BioAssay Systems (Hayward, Calif., Catalog No. DARG-200) according to the manufacturer's protocol. Modifications were made to reagent quantities to suit the assaying of a highly purified sample. […]
pKi: −log10 of the molar value.
measurement_type: pKi

> print(dat)
                                   compound                  target.of.assay       reading
1  CN(C)CCNCCCC(N)(CCCCB(O)O)C(=O)O (stereo not drawn) [Example 89]  human arginase I (Homo sapiens)        > 8.00
2  CN1CCN(CCCC(N)(CCCCB(O)O)C(=O)O)CC1 (stereo not drawn) [Example 106]  human arginase I (Homo sapiens)  7.30 to 7.96
3  NC(CCCCB(O)O)(CCCN1CCC(C(=O)c2ccc(F)cc2)CC1)C(=O)O (stereo not drawn) [Example 101]  human arginase I (Homo sapiens)        > 8.00
4  NC(CCCCB(O)O)(CCCN1CCN(c2ccc(C(F)(F)F)cn2)CC1)C(=O)O (stereo not drawn) [Example 41]  human arginase I (Homo sapiens)        > 8.00
5  NC(CCCCB(O)O)(CCCCN1CCNCC1)C(=O)O (stereo not drawn) [Example 93]  human arginase I (Homo sapiens)  7.30 to 7.96
6  NC(CCCCB(O)O)(CCN1CCN(Cc2ccc(Cl)c(Cl)c2)CC1)C(=O)O (stereo not drawn) [Example 15]  human arginase I (Homo sapiens)  6.60 to 7.00
7  NC(CCCCB(O)O)(CCCN1CCC(O)(c2ccc(Cl)cc2)CC1)C(=O)O (stereo not drawn) [Example 40]  human arginase I (Homo sapiens)        > 8.00
8  NC(CCCCB(O)O)(CCCN1CCN(Cc2cccc(F)c2F)CC1)C(=O)O (stereo not drawn) [Example 7]  human arginase I (Homo sapiens)        > 8.00
9  NC(CCCCB(O)O)(CCCN1C2CCC1CC(n1cnc3ccccc31)C2)C(=O)O (stereo not drawn) [Example 102]  human arginase I (Homo sapiens)        > 8.00

====

The entries below come with measured Ki values attached.
# target_of_assay: human arginase II (Homo sapiens, UniProt P78540)
# Sequence (P78540 23-354): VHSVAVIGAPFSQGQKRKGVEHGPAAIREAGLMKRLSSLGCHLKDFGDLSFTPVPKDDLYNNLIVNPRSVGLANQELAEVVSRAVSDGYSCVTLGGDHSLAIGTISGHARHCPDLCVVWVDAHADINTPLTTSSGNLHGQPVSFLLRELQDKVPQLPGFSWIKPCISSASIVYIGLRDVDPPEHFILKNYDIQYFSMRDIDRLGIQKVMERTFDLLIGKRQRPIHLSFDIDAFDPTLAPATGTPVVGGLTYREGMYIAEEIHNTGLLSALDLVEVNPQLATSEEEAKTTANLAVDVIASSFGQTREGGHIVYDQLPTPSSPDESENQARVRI
# assay_comment: Arginase inhibition, QuantiChrom colorimetric urea assay, IC50 converted to Ki
# Type: biochemical
# applied_conditions: Table 3; pH 9.5; read-out: human Arginase II pH 9.5, Ki assigned value
measurement_type: Ki

> print(dat)
                                    molecule  measurement.type        reading
 1  NC(CCCCB(O)O)(CCCCN1CCc2ccccc2C1)C(=O)O (stereo not shown) [Example 96]                Ki    11 to 50 nM
 2  CN(C)CCN(C)CCCC(N)(CCCCB(O)O)C(=O)O (stereo not shown) [Example 88]                Ki   51 to 100 nM
 3  NC(CCCCB(O)O)(CCCN1CCN(c2ccc(Cl)c(Cl)c2)CC1)C(=O)O (stereo not shown) [Example 16]                Ki    11 to 50 nM
 4  NC(CCCCB(O)O)(CCCN1CCSCC1)C(=O)O (stereo not shown) [Example 65]                Ki       > 400 nM
 5  NC(CCCCB(O)O)(CCC1CCCCN1Cc1ccc(F)c(F)c1)C(=O)O (stereo not shown) [Example 21]                Ki   51 to 100 nM
 6  NC(CCCCB(O)O)(CCCN1CCN(CCc2ccccc2)CC1)C(=O)O (stereo not shown) [Example 14]                Ki    11 to 50 nM
 7  CN(C)CCNCCCC(N)(CCCCB(O)O)C(=O)O (stereo not shown) [Example 89]                Ki    11 to 50 nM
 8  NC(CCCCB(O)O)(CCCCN1CCN(c2ccc(Cl)c(Cl)c2)CC1)C(=O)O (stereo not shown) [Example 94]                Ki    11 to 50 nM
 9  NC(CCCCB(O)O)(CCCCN1CCNCC1)C(=O)O (stereo not shown) [Example 93]                Ki    11 to 50 nM
10  CN1CCN(CCCC(N)(CCCCB(O)O)C(=O)O)CC1 (stereo not shown) [Example 106]                Ki  251 to 400 nM

====

# target_of_assay: human arginase II (Homo sapiens, UniProt P78540)
# assay_comment: Arginase inhibition, QuantiChrom colorimetric urea assay, IC50 converted to Ki
# Type: biochemical
# applied_conditions: Table 3; pH 7.5; read-out: human Arginase II pH 7.5, Ki assigned value
The entries below come with measured Ki values attached.
measurement_type: Ki

> print(dat)
                                   compound  measurement.type           reading
1  CN(C)CCN(C)CCCC(N)(CCCCB(O)O)C(=O)O (stereo not drawn)                Ki   0.051 to 0.1 µM
2  COCCN(C)CCCC(N)(CCCCB(O)O)C(=O)O (stereo not drawn)                Ki  0.011 to 0.05 µM
3  NC(CCCCB(O)O)(CCCN1CCCC1c1ccc(-c2ccccc2)cc1)C(=O)O (stereo not drawn)                Ki  0.011 to 0.05 µM
4  NC(CCCCB(O)O)(CCCN1CCN(c2ccc(Cl)c(Cl)c2)CC1)C(=O)O (stereo not drawn)                Ki   0.051 to 0.1 µM
5  NC(CCCCB(O)O)(CCCN1CCC(NC(=O)c2ccccc2)CC1)C(=O)O (stereo not drawn)                Ki         < 0.01 µM
6  NC(CCCCB(O)O)(CCCN1CCC2(CC1)C(=O)NCN2c1ccccc1)C(=O)O (stereo not drawn)                Ki         < 0.01 µM
7  NC(CCCCB(O)O)(CCCNC1CCCCC1)C(=O)O (stereo not drawn)                Ki         < 0.01 µM
8  NC(CCCCB(O)O)(CCCn1cnc2ccccc21)C(=O)O (stereo not drawn)                Ki  0.011 to 0.05 µM
9  NC(CCCCB(O)O)(CCCN1CCCC1)C(=O)O (stereo not drawn)                Ki   0.051 to 0.1 µM

====

# target_of_assay: human arginase I (Homo sapiens)
# Sequence (P05089 1-322): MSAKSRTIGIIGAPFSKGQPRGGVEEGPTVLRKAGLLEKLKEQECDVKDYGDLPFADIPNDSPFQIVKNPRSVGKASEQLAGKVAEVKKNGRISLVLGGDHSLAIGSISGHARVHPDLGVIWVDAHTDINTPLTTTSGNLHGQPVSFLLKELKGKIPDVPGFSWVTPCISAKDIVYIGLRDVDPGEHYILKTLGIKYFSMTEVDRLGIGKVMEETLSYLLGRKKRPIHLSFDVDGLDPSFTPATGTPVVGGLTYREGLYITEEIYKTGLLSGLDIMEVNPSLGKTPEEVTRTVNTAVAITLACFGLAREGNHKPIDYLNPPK
# assay_comment: Arginase inhibition, QuantiChrom colorimetric urea assay, IC50 converted to Ki
# Type: biochemical
# applied_conditions: Table 3; pH 7.5; read-out: human Arginase I pH 7.5, Ki assigned value
measurement_type: Ki

> print(dat)
                                   molecule      reading
1  CN(CCCC(N)(CCCCB(O)O)C(=O)O)CCc1ccccc1 (stereo not drawn)  11 to 50 nM
2  NC(CCCCB(O)O)(CCCNC1CCCCC1)C(=O)O (stereo not drawn)      < 10 nM
3  NC(CCCCB(O)O)(CCCN1CCN(c2ccc(Cl)c(Cl)c2)CC1)C(=O)O (stereo not drawn)  11 to 50 nM
4  NC(CCCCB(O)O)(CCCNCCc1ccccc1)C(=O)O (stereo not drawn)      < 10 nM
5  NC(CCCCB(O)O)(CCCN1CCCC1c1ccc(-c2ccccc2)cc1)C(=O)O (stereo not drawn)  11 to 50 nM
6  NC(CCCCB(O)O)(CCC1CCCCN1Cc1cc(F)cc(F)c1)C(=O)O (stereo not drawn)  11 to 50 nM
7  NC(CCCCB(O)O)(CCCN1CCC(Nc2ccccc2)CC1)C(=O)O (stereo not drawn)      < 10 nM
8  NC(CCCCB(O)O)(CCCN1CC(c2ccccc2)C1)C(=O)O (stereo not drawn)      < 10 nM
9  NC(CCCCB(O)O)(CCCN1CC(NC(=O)Nc2ccc(Cl)c(Cl)c2)C1)C(=O)O (stereo not drawn)      < 10 nM
